The values you see were collected from patent US6583139B1.

Where a SMILES comes first, the peptide text is derived from it. The star is where a group is joined. Tos = Cc1ccc(S(=O)(=O)*)cc1
# maps each entry to its melting point
measure: melting point

Cc1ccc(S(=O)(=O)N[C@@H](CCC(=O)O)C(=O)N[C@@H](Cc2ccc(O)cc2)C(=O)O)cc1 [Example 30] (Tos-Glu-Tyr-OH) : 173 to 175 °C
Cc1ccc(S(=O)(=O)N2CCC[C@H]2C(=O)N[C@@H](Cc2ccc(C(=O)N[C@@H]3Cc4ccccc4C=N3)cc2)C(=O)O)cc1 [Example 52] : 145 to 150 °C
CC(C)OC(=O)[C@H](Cc1ccc(O)cc1)NC(=O)[C@@H]1CCCN1S(=O)(=O)c1cn(C)cn1 [Example 226] : 159 to 162 °C
Cc1ccc(S(=O)(=O)N2CCC[C@H]2C(=O)N[C@@H](CC(=O)O)C(=O)O)cc1 [Example 19] (Tos-Pro-Asp-OH) : 174 to 176 °C

* * *

Where a SMILES comes first, the peptide text is derived from it. The star is where a group is joined. Tos = Cc1ccc(S(=O)(=O)*)cc1
# maps each entry to its melting point
measure: melting point

Cc1ccc(S(=O)(=O)N2CCC[C@H]2C(=O)N[C@@H](Cc2ccc(OCCN(Cc3ccccc3)Cc3ccccc3)cc2)C(=O)O)cc1 : 106 to 110 °C
Cc1ccc(S(=O)(=O)N2CCC[C@H]2C(=O)N[C@@H](C)C(=O)O)cc1 [Example 16] (Tos-Pro-Ala-OH) : 160.5 to 162.5 °C
Cc1ccc(S(=O)(=O)N2CCC[C@H]2C(=O)N[C@@H](Cc2ccc(NC(=O)Nc3ccc(C#N)cc3)cc2)C(=O)O)cc1 : 163 to 165 °C
